These entries and their values trace back to patent US20240382483A1.

Biological target: intracellular phosphorylation of EGFR in NCI-H1975 cell line that harbors the EGFR L858R T790M mutations (Homo sapiens, UniProt P00533, L858R/T790M)
Construct: NCI-H1975 cell line that harbors the EGFR L858R T790M mutations (ATCC, CRL-5908); host or cells: NCI-H1975
Sequence (P00533 25-1210 T790M/L858R): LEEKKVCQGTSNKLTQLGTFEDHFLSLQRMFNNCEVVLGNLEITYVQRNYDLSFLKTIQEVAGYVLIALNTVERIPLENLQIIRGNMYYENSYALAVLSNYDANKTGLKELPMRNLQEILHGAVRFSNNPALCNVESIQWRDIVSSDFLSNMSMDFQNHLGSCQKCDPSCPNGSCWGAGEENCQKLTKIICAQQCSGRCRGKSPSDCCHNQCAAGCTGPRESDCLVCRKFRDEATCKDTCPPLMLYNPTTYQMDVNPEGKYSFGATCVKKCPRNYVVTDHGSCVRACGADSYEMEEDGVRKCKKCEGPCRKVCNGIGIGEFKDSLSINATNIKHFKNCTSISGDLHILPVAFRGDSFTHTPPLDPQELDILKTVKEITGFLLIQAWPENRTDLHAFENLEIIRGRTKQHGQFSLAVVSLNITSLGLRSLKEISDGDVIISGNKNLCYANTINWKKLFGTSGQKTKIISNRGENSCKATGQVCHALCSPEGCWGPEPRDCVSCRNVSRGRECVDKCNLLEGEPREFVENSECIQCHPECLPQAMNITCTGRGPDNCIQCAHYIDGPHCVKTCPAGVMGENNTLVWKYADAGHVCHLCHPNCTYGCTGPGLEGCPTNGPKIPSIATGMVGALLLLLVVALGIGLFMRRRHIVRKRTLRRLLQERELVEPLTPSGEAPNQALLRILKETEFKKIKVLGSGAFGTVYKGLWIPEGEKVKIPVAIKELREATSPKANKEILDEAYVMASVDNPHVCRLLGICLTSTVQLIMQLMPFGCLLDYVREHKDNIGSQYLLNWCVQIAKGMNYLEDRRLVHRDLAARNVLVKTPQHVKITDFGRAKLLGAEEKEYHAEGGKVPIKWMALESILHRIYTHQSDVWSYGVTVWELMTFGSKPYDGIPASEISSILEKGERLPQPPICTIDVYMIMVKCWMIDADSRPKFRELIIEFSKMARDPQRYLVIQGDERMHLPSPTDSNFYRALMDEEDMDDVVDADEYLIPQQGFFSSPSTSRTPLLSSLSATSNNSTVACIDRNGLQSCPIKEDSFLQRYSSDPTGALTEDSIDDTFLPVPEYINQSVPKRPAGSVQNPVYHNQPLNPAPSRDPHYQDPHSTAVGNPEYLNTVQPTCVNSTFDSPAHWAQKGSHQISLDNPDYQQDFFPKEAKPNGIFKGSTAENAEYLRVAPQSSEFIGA
Assay: NCI-H1975 pEGFR AlphaLISA assay
Assay type: cell-based
Conditions: NCI-H1975 cells (EGFR L858R T790M), p-EGFR (Tyr1068), 4-5 hours incubation; read-out: Ext pEGFR H1975 GMean IC50 (nM) Protocol: @Pharmaron AlphaLISA (Num)
experimental_readout: IC50

> print(dat)
                                   compound  experimental.readout  measurement
1  CC(C)c1cnc(N2C[C@H](O)[C@H]2C)c2cnc(Nc3ccnc(N4C[C@@H](F)[C@@H](O)[C@@](C)(F)C4)n3)cc12 (single isomer, unassigned)                  IC50  10 to 20 nM
2  COCCN1CC2(CCN2c2ncc(C(C)C)c3cc(Nc4ccnc(N5CC[C@@H](O)[C@@](C)(F)C5)n4)ncc23)C1                  IC50  30 to 50 nM
3  CC(C)c1cnc(N2CCC23CNC3)c2cnc(Nc3ccnc(N4CC[C@@H](O)[C@@](C)(F)C4)n3)cc12                  IC50      > 50 nM

Qu. For "CC(C)c1cnc(N2CC3(CCO3)C2)c2cnc(Nc3ccnc(N4CC[C@@H](O)[C@@](C)(F)C4)n3)cc12" , write its IC50.
Ans. 20 to 30 nM

Qu. For "CC(C)c1nnc(N2CCCC2)c2cnc(Nc3ccnc(N4CC[C@@H](O)[C@@](C)(F)C4)n3)cc12" , write its IC50.
Ans. > 50 nM

Qu. For "CC(C)c1ncc(-c2ccn(C)n2)c2cnc(Nc3ccnc(N4CC[C@@H](O)[C@@](C)(F)C4)n3)cc12" , write its IC50.
Ans. 30 to 50 nM

###

Biological target: intracellular phosphorylation of EGFR in NCI-H1975 cell line that harbors the EGFR L858R T790M mutations (Homo sapiens, UniProt P00533, L858R/T790M)
Construct: NCI-H1975 cell line that harbors the EGFR L858R T790M mutations (ATCC, CRL-5908); host or cells: NCI-H1975
Assay: NCI-H1975 pEGFR AlphaLISA assay
Format: cell-based
Conditions: NCI-H1975 cells (EGFR L858R T790M), p-EGFR (Tyr1068), 4-5 hours incubation; read-out: Ext pEGFR H1975 GMean IC50 (nM) Protocol: @Pharmaron AlphaLISA (Num)
experimental_readout: IC50

Examples from the recorded data:
compound	experimental_readout	measurement
C[C@H](CO)c1cnc(N2CC[C@H]2C)c2cnc(Nc3ccnc(N4C[C@@H](F)[C@@H](O)C(C)(C)C4)n3)cc12 (single isomer, unassigned) [Example 188]	IC50	20 to 30 nM
CC(C)c1cnc(N2CC[C@H]2CF)c2cnc(Nc3ccnc(N4CC[C@@H](O)[C@@](C)(F)C4)n3)cc12 [Example 76]	IC50	10 to 20 nM

Qu. For CC(C)c1cnc(-c2cn(C3COC3)cn2)c2cnc(Nc3ccnc(N4CC[C@@H](O)[C@@](C)(F)C4)n3)cc12 [Example 20] , write its IC50.
Ans. 30 to 50 nM
